List of HC50 values.
system: human red blood cells; test: Hemolytic activity assay; format: cell-based; settings: concentration needed for 50% hemolysis; human RBC in PBS, room temperature, 1 h; 0.1-100 μmol L^−1
Where no end group is shown, it is not given here.
A number alone suffices; assume µmol/L.

Previously resolved entries follow.
- H-ILGTILKLLKSL-NH2 [Peptide 16, ILGTILKLLKSL-NH2]: 12.5
- H-ILGTILGLLKSL-NH2 [WT, ILGTILGLLKSL-NH2, reference compound]: 50.0

Shift focus to the following entry.
# lookup: HC50 of ILGTILGLFKSL-NH2 [Peptide 17, ILGTILGLFKSL-NH2] 50.0

Measured values drawn from patent US20210347823A1 for this set.
